Test system: YAP/TAZ-TEAD transcription
Test: Reporter gene assay for measuring the inhibition of YAP/TAZ-TEAD transcription (TEAD-responsive element luciferase reporter in Hek293T cells)
Format: cell-based
Settings: Hek293T cells transiently transfected with TEAD-responsive element luciferase reporter, 24 hours incubation
pEC50: −log10 of the molar value.
Reported pEC50 values for a set of molecules

Past entries and their recorded results:
{"molecule": "C=CC(=O)NCC1CN(S(=O)(=O)c2ccc(C(F)(F)F)cc2)c2ccnn2C1 (stereo not shown) [Cpd. No. 045]", "meas_value": "< 4.70"}
{"molecule": "C=CC(=O)NCC1CN(c2ccc(OC(F)F)cc2)c2ccnn2C1 (single isomer, unassigned) [Cpd. No. 012-En2]", "meas_value": "> 6.00"}
{"molecule": "C=CC(=O)NCC1CN(c2ccc(OC(F)(F)F)cc2)c2ccnn2C1 (single isomer, unassigned) [Cpd. No. 011-En2]", "meas_value": "> 6.00"}
{"molecule": "C=CC(=O)NCC1CN(c2ccc(C(F)(F)F)cc2)c2cc(C#N)nn2C1 (single isomer, unassigned) [Cpd. No. 033-En1]", "meas_value": "4.70 to 6.00"}
{"molecule": "CN1CCC2(CN(c3ccc(C(F)(F)F)cc3)c3ccnn3C2)C1=O (single isomer, unassigned)", "meas_value": "< 4.70"}
{"molecule": "CS(=O)(=O)N1CCC2(CN(c3ccc(C(F)(F)F)cc3)c3ccnn3C2)C1=O (single isomer, unassigned)", "meas_value": "< 4.70"}

Okay, next one:
Lab entry: YAP/TAZ-TEAD transcription assay, molecule C=CC(=O)NCC1CN(c2ccc(F)cc2)c2ccnn2C1 (single isomer, unassigned) [Cpd. No. 006-En2] , pEC50 = > 6.00

====

Reported pEC50 values for a set of compounds
System: YAP/TAZ-TEAD transcription
Assay: Reporter gene assay for measuring the inhibition of YAP/TAZ-TEAD transcription (TEAD-responsive element luciferase reporter in Hek293T cells)
Type: cell-based
Settings: Homo sapiens, HEK-293T, 24 h, Hek293T cells transiently transfected with TEAD-responsive element luciferase reporter, 24 hours incubation
pEC50: −log10 of the molar value.

Past entries and their recorded results:
{"compound": "CS(=O)(=O)N1CCC2(CN(c3ccc(C(F)(F)F)cc3)c3ccnn3C2)C1=O (single isomer, unassigned)", "test_system": "YAP/TAZ-TEAD transcription", "pEC50": "< 4.70"}
{"compound": "C=CC(=O)NCC1CN(c2ccc(C(F)(F)F)c(F)c2)c2ccnn2C1 (centres unmarked)", "test_system": "YAP/TAZ-TEAD transcription", "pEC50": "> 6.00"}
{"compound": "C=CC(=O)NCC1CN(C(=O)C2CCCCC2)c2ccnn2C1 (centres unmarked)", "test_system": "YAP/TAZ-TEAD transcription", "pEC50": "4.70 to 6.00"}
{"compound": "C=CC(=O)NCC1CN(c2ccc(C(C)C)cc2)c2ccnn2C1 (centres unmarked)", "test_system": "YAP/TAZ-TEAD transcription", "pEC50": "> 6.00"}
{"compound": "C=CC(=O)NCC1Cc2c(cnn2C(F)F)N(c2ccc(C(F)(F)F)cc2)C1 (single isomer, unassigned)", "test_system": "YAP/TAZ-TEAD transcription", "pEC50": "> 6.00"}

pEC50 reading for CCC(=O)NC1CN(c2ccc(C(F)(F)F)cc2)c2ccnn2C1 (centres unmarked) : < 4.70

pEC50 reading for C=C(C)C(=O)NCC1CN(c2ccc(C(F)(F)F)cc2)c2ccnn2C1 (centres unmarked) : > 6.00

pEC50 reading for C=CC(=O)NCC1Cc2c(cnn2C)N(c2ccc(OC(F)(F)F)cc2)C1 (centres unmarked) : > 6.00

pEC50 reading for C=CC(=O)NC1CN(c2ccc(C(F)(F)F)cc2)c2ccnn2C1 (centres unmarked) : > 6.00

pEC50 reading for CCC(=O)NCC1CN(Cc2ccc(C(F)(F)F)cc2)c2ccnn2C1 (centres unmarked) : < 4.70

pEC50 reading for C=CC(=O)NCC1CN(C(=O)c2ccccc2)c2ccnn2C1 (centres unmarked) : < 4.70

pEC50 reading for CS(=O)(=O)NCC1CN(c2ccc(C(F)(F)F)cc2)c2ccnn2C1 (centres unmarked) : < 4.70

pEC50 reading for CS(=O)(=O)NC1CN(c2ccc(C(F)(F)F)cc2)c2ccnn2C1 (centres unmarked) : < 4.70

pEC50 reading for C=CC(=O)NC1CN(c2ccc(C(F)(F)F)cc2F)c2ccnn2C1 (single isomer, unassigned) : > 6.00

pEC50 reading for C#CCN1CC(CNC(=O)C=C)Cn2nccc21 (centres unmarked) : < 4.70

pEC50 reading for C=CC(=O)NCC1CN(c2ccc(C(F)(F)F)nc2)c2ccnn2C1 (centres unmarked) : > 6.00

pEC50 reading for C=CC(=O)NCC1CN(c2cnn(C(F)F)c2)c2ccnn2C1 (centres unmarked) : < 4.70

====

Test system: YAP/TAZ-TEAD transcription
Assay: Reporter gene assay for measuring the inhibition of YAP/TAZ-TEAD transcription (TEAD-responsive element luciferase reporter in Hek293T cells)
Type: cell-based
Conditions: Homo sapiens, HEK-293T, 24 h, Hek293T cells transiently transfected with TEAD-responsive element luciferase reporter, 24 hours incubation
pEC50: −log10 of the molar value.
Reported pEC50 values for a set of compounds

Past entries and their recorded results:
{"compound": "C=CC(=O)NCC1CN(c2ccc(C3CC3)cc2)c2ccnn2C1 (single isomer, unassigned)", "meas_value": "> 6.00"}
{"compound": "CCC(=O)NCC1Cc2c(cnn2C)N(c2ccc(C(F)(F)F)cc2)C1 (stereo not drawn)", "meas_value": "< 4.70"}
{"compound": "C=CC(=O)NCC1CN(c2ccc(OC(F)(F)F)cc2)c2cc(C)nn2C1 (stereo not drawn)", "meas_value": "> 6.00"}
{"compound": "C=CC(=O)NCC1CN(c2ccc(OC(F)F)cc2)c2ccnn2C1 (stereo not drawn)", "meas_value": "> 6.00"}
{"compound": "C=CC(=O)NCC1CN(c2ccc(C(F)(F)F)cc2)c2cc(C#N)nn2C1 (stereo not drawn)", "meas_value": "> 6.00"}

pEC50 reading for C=CC(=O)NCC1Cc2c(cnn2C)N(c2ccc(C(F)(F)F)cc2)C1 (stereo not drawn) : > 6.00

pEC50 reading for C=CC(=O)NCC1CN(c2ccc(C(F)(F)F)cc2F)c2ccnn2C1 (stereo not drawn) : > 6.00

pEC50 reading for C=CC(=O)NCC1CN(c2ccc(OC(F)(F)F)c(F)c2)c2ccnn2C1 (stereo not drawn) : > 6.00

pEC50 reading for C#CCNCC1CN(c2ccc(C(F)(F)F)cc2)c2ccnn2C1 (stereo not drawn) : < 4.70

pEC50 reading for C=CC(=O)NCC1CN(CC2CCCCC2)c2ccnn2C1 (stereo not drawn) : > 6.00

pEC50 reading for O=C1NCCC12CN(c1ccc(C(F)(F)F)cc1)c1ccnn1C2 (stereo not drawn) : > 6.00

pEC50 reading for C=CC(=O)NCC1CN(c2ccc(C(C)(C)C)cc2)c2ccnn2C1 (single isomer, unassigned) : > 6.00

pEC50 reading for CS(=O)(=O)NCC1CN(Cc2ccc(C(F)(F)F)cc2)c2ccnn2C1 (stereo not drawn) : < 4.70

pEC50 reading for C=CC(=O)NC1CN(c2ccc(C(F)(F)F)c(F)c2)c2ccnn2C1 (stereo not drawn) : > 6.00

====

Tested on: YAP/TAZ-TEAD transcription
Assay: Reporter gene assay for measuring the inhibition of YAP/TAZ-TEAD transcription (TEAD-responsive element luciferase reporter in Hek293T cells)
Format: cell-based
Conditions: Hek293T cells transiently transfected with TEAD-responsive element luciferase reporter, 24 hours incubation
measured_metric: EC50

Past entries and their recorded results:
{"compound": "C=CC(=O)NCC1CN(c2ccc(C(F)(F)F)cc2)c2cnc(C(F)(F)F)n2C1 (single isomer, unassigned) [Cpd. No. 094-En2]", "test_system": "YAP/TAZ-TEAD transcription", "meas_value": "< 1000 nM"}
{"compound": "C=CC(=O)NCC1CN(c2ccc(C(F)F)nc2)c2ccnn2C1 (stereo not shown) [Cpd. No. 010]", "test_system": "YAP/TAZ-TEAD transcription", "meas_value": "< 1000 nM"}
{"compound": "C=CC(=O)NCC1CN(c2ccc(C(F)(F)F)cc2)c2cc(CC3CC3)nn2C1 (single isomer, unassigned) [Cpd. No. 032-En2]", "test_system": "YAP/TAZ-TEAD transcription", "meas_value": "< 1000 nM"}
{"compound": "C=CC(=O)NC1CN(c2ccc(C(F)(F)F)cc2F)c2ccnn2C1 (single isomer, unassigned) [Cpd. No. 065-En2]", "test_system": "YAP/TAZ-TEAD transcription", "meas_value": "< 1000 nM"}
{"compound": "C=CC(=O)NCC1CN(c2ccc(OC(F)(F)F)cc2)c2cc(C)nn2C1 (single isomer, unassigned) [Cpd. No. 030-En2]", "test_system": "YAP/TAZ-TEAD transcription", "meas_value": "< 1000 nM"}
{"compound": "C=CC(=O)NCC1CN(c2ccc(C(F)(F)F)cc2)c2ccnn2C1 (single isomer, unassigned) [Cpd. No. 002-En1]", "test_system": "YAP/TAZ-TEAD transcription", "meas_value": "< 1000 nM"}
{"compound": "C=CC(=O)NCC1CN(c2ccc(OC(F)F)cc2)c2ccnn2C1 (single isomer, unassigned) [Cpd. No. 012-En1]", "test_system": "YAP/TAZ-TEAD transcription", "meas_value": "< 1000 nM"}
{"compound": "C=CC(=O)NCC1CN(c2ccc(C(F)(F)F)cc2F)c2ccnn2C1 (single isomer, unassigned) [Cpd. No. 016-En2]", "test_system": "YAP/TAZ-TEAD transcription", "meas_value": "< 1000 nM"}
{"compound": "C=CC(=O)NCC1CN(c2cccc(F)c2)c2ccnn2C1 (single isomer, unassigned) [Cpd. No. 004-En2]", "test_system": "YAP/TAZ-TEAD transcription", "meas_value": "< 1000 nM"}
{"compound": "C=CC(=O)NCC1CN(c2ccc(-c3ccccc3)cc2)c2ccnn2C1 (stereo not shown) [Cpd. No. 017]", "test_system": "YAP/TAZ-TEAD transcription", "meas_value": "1000 to 20000 nM"}

EC50 reading for C=CC(=O)NCC1CN(c2ccc(C(F)F)nc2)c2ccnn2C1 (single isomer, unassigned) [Cpd. No. 010-En1] : > 20000 nM

EC50 reading for CCC(=O)NCC1Cc2c(cnn2Cc2cccc(C(N)=O)c2)N(c2ccc(C(F)(F)F)cc2)C1 (stereo not shown) [Cpd. No. 082] : < 1000 nM

EC50 reading for C=CC(=O)NCC1CN(c2ccc(OC(F)(F)F)cc2)c2ccnn2C1 (single isomer, unassigned) [Cpd. No. 011-En1] : < 1000 nM
